target or system: T1, extracellular domain of human BCMA (human, UniProt Q02223 1-54)
T1 construct: amine-linked to Octet AR2G tips; also called hsBCMA; BCMA (human)
T1 sequence: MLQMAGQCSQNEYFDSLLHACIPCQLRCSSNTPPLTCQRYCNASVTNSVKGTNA
test method notes: Octet BLI; Fab 200 nM
Entries and their measured Kd follow.
readout: Kd (µM)

- AB200-(2Vk30)_R2-VH-v37 (Fab, V domains shown, also called AB200_VH2-37_VK2-30) VH: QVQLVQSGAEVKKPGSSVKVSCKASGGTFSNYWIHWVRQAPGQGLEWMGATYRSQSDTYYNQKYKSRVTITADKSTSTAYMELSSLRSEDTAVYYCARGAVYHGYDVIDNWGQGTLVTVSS VL: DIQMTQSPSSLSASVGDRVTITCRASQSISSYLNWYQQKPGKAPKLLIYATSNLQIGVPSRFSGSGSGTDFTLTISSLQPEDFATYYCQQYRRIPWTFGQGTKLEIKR: 0.00081
- AB200-(2Vk30)_R2-VH-v4 (Fab, V domains shown) VH: QVQLVQSGAEVKKPGSSVKVSCKASGGTFTNYWIHWVRQAPGQGLEWMGATYRSHSDTNYAQKFKSRVTITADKSTSTAYMELSSLRSEDTAVYYCARGAIYHGYDVIENWGQGTLVTVSS VL: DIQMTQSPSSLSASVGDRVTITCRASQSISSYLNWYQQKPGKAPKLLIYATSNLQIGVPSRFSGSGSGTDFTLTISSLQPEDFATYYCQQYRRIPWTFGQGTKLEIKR: 0.0464
